Provide the recorded GI50 for the entries that follow.
# Tested on: K562
# assay: NCI tumour cell line growth inhibition, 48 h
Activity calls are given as the source filed them. No stated cut-off is given here; in the data, active = GI50 up to about 1.1 µM and inactive = higher.

The compound identified as N#Cc1ccc(C2OCC3CC=CCC3CO2)cc1 (stereo not given) registered its GI50 at 30.9 µM (inactive)

Per the record, Cn1c2ccc3cc2c(=S)c2cc(ccc21)OCCOCCOCCOCCOCCOCCO3 has GI50 of > 10 µM (inactive)

For CCN(CC)CCOC(=O)c1ccc(N)cc1.CCOC(=O)Nc1ccc(S(=O)(=O)OC)cc1.CCOC(=O)Nc1ccc(S(=O)(=O)OC)cc1.Nc1ccc(C(=O)O)c(O)c1 the compound record lists GI50 as > 100 µM (inactive)

# GI50 (compound: CO/C(N)=C(C#N)/N=C/c1cccs1 ) is 42.2 µM (inactive)

Just so you know, measured GI50 for CC(=O)O[C@]12CCCCCCC1C1(O)C(O)CCC[C@H]12 (stereo not given in full) came out at > 100 µM (inactive)

---

# Tested on: HOP-62
# assay: NCI tumour cell line growth inhibition, 48 h
Calls of active or inactive are those of the source. Cut-off read from the data, not from the text of the source: active = GI50 up to about 1.1 µM and inactive = higher.
Task for the reader: assign each of the following compounds its reported GI50.

// assay HOP-62, entry COc1ccc(C(OCC2OC(n3cc(C)c(=O)[nH]c3=O)CC2n2cc(Cn3cc(Cl)c(=O)[nH]c3=O)nn2)(c2ccccc2)c2ccccc2)cc1 (stereo not given) , GI50 value = > 100 µM (inactive)

# GI50 measured on HOP-62 for item O=C1Nc2ccccc2/C1=N/Nc1ncccc1[N+](=O)[O-] = 12.9 µM (inactive)

Lab note: compound COc1cc(Nc2nc3ccccc3n3cccc23)cc(OC)c1OC tested on HOP-62; recorded GI50 was 19.1 µM (inactive)

Bench note, HOP-62: O=C(/C=C/c1ccccc1)Oc1cccc(Br)c1 , GI50 reads > 100 µM (inactive)

Let me check: O=C(O)c1ccc2c(c1)CC1(C2)Cc2cc3c(cc2C1=O)CCC3 (stereo not given) , system HOP-62, measured GI50 is > 100 µM (inactive)

Record for Cc1[nH]c(-c2ccccc2)c(O)c1C(=O)OC12CC3CC(CC(C3)C1)C2 under target or system HOP-62: GI50 reported as 14.7 µM (inactive)

Entry CN(C)N1C(=O)CC2(CCN(CCCC(=O)c3ccc(F)cc3)CC2)C1=O , tested on HOP-62, has a reported GI50 of > 100 µM (inactive)

Case CN(C)CCNC(=O)c1cccc2c1C(=O)c1ccccc1C2=O , HOP-62, GI50 recorded as > 31.6 µM (inactive)

Measured GI50 for this entry COc1cc(C(=O)n2c3ccc(Br)cc3c3nc4ccccc4nc32)cc(OC)c1OC on HOP-62: > 100 µM (inactive)

Here COc1ccc(C2C(C#N)=C(S)N(C3OC(COC(C)=O)C(OC(C)=O)C(OC(C)=O)C3OC(C)=O)C(c3ccccc3)=C2C(C)=O)cc1 (stereo not given) was tested on HOP-62, and its GI50 came to > 100 µM (inactive)

Entry CC(C)(C)[Si](C)(C)OCCc1ccccc1C1CC2(S(=O)(=O)c3ccccc3)ON1CC2S(=O)(=O)c1ccccc1 (stereo not given) ; assay system HOP-62; GI50 recorded at > 100 µM (inactive)

GI50 of O=C1c2ccccc2C(=O)[C@@]23O[C@@]12C1(Oc2cccc4cccc(c24)O1)[C@@H]1O[C@@H]1[C@@H]3O , assay on HOP-62, is 12.6 µM (inactive)

Log: HOP-62, compound CC1=C[C@H]2C[C@@]3(C)O[C@@H]([C@]4(C)CC[C@H]([C@@H](C)C(=O)O)OO4)CC3C(C)(C)[C@H]2CC1 (stereo not given in full) , GI50 = 2.22 µM (inactive)

Tested on HOP-62, the item CCc1cc2c(cc1CCCC(=O)O)CC1(Cc3ccc(C(=O)O)cc3C1)C2 (stereo not given) showed GI50 equal to > 100 µM (inactive)

GI50 on HOP-62 for Cn1c(=O)c(NC(=O)C(Cl)(Cl)Cl)nc2ccccc21 is > 100 µM (inactive)

Let me check: Nc1nc2ncn(CC(O)COC(=O)c3ccccc3)c2c(=O)[nH]1 (stereo not given) , system HOP-62, measured GI50 is > 100 µM (inactive)

Entry CC12OC3(C(O)C1O)C(C(=O)O[C@H]3CO[Si](C)(C)C(C)(C)C)C2S(=O)(=O)c1ccccc1 (stereo not given in full) ; assay system HOP-62; GI50 recorded at > 100 µM (inactive)

GI50 for HOP-62 with input CC(C)(C)OC(=O)N1C(=O)OC[C@@H]2C=C[C@@H]21 equals > 100 µM (inactive)

Case NCCSCCC(=O)O , HOP-62, GI50 recorded as > 68.5 µM (inactive)

// GI50 (HOP-62) for CCCn1c2c(c3ccccc3c1=O)C(=O)c1ccccc1-2 = 14.1 µM (inactive)

---

# System: A549
# assay: NCI tumour cell line growth inhibition, 48 h
Activity calls are given as the source filed them. Rule as the data show it: active = GI50 up to about 1.1 µM and inactive = higher.
measured attribute: GI50

Form: compound = COc1ccc(C2C(Cl)C(=O)N2NC(=O)Cc2ccccc2)cc1 (configuration not stated) ; GI50 = > 100 µM (inactive)

The recorded GI50 for entry CN(C)/C=N/[C@@H](C(=O)O)c1ccccc1 equals > 100 µM (inactive)

GI50 recorded for this compound, CCSCCCN(CCCSCC)CCCSCC , is > 100 µM (inactive)

Per the records, this compound ( Cc1cc(N(CCOS(C)(=O)=O)CCOS(C)(=O)=O)ccc1/C=N/c1ccc(-c2nc(Cc3ccccc3)sc2C)cc1 ) has GI50 equal to 1.33 µM (inactive)

Reported GI50 ( CN1c2ccccc2S(=O)(=O)n2c(COc3ccc(Cl)cc3)nnc21 ) = > 100 µM (inactive)

# compound COc1cc(-c2c3c(cc4c2OCO4)[C@@H](Nc2ccc(-c4ccc(-c5ccc(N[C@@H]6c7cc8c(cc7C(c7cc(OC)c(O)c(OC)c7)[C@H]7C(=O)OC[C@H]67)OCO8)cc5)cc4)cc2)[C@H]2COC(=O)[C@@H]2C3)cc(OC)c1O (some centres not stated) ; its GI50 = 3.22 µM (inactive)

// CCOC(=O)C(=O)N1C(C)=C(C(=O)OCC)CC(C(=O)OCC)=C1C : GI50 value = > 100 µM (inactive)

O=C(c1ccccn1)C1(N2CCCCC2)CCCCC1 yielded GI50 of > 100 µM (inactive)

response.value for Cc1nnc(N)nc1/C=C\c1cccs1 (field: GI50) = 27.7 µM (inactive)

Short answer for CC(C)(C)OC(=O)NCCC1CN(C(=O)c2ccccc2)c2ccccc21 (configuration not stated) : GI50 was 25.3 µM (inactive)

GI50 for C=CCN1C(=O)CS/C1=N\NC(=O)c1c(C)nc2sccn12 is > 100 µM (inactive)

Data point: CCSc1cc(=O)n(C)c(=O)n1C ; GI50 = > 100 µM (inactive)

Documented GI50 of O=C(O)CCC(NC(=O)c1ccc(OCc2nc3cc(C(F)(F)F)ccc3nc2-c2ccccc2)cc1)C(=O)O (configuration not stated) : > 100 µM (inactive)

// GI50 value for CN(C)C(=O)Oc1ccc(-c2cn3cc(NC(=O)c4ccccc4)ccc3n2)cc1 : 83.4 µM (inactive)

Entry Nc1nc(-c2ccccc2)cc(-c2cc(Cl)ccc2O)n1 — recorded GI50 = 42.7 µM (inactive)

Item: C=CCn1cnc2c(O)nc(Nc3ccccc3)nc21 | GI50: > 100 µM (inactive)

The compound listed as COC(=O)c1cc2c3ccccc3n(C(C)=O)c2cn1 shows GI50 equal to > 100 µM (inactive)

Lab note: measured GI50 of Cc1ccc(Cc2cc(N3CCN(c4cccc(Cl)c4)CC3)nnc2C)cc1 was 43 µM (inactive)

The compound identified as Nc1ccc(COC(O)CN2CCCCC2)cc1[N+](=O)[O-] (configuration not stated) registered its GI50 at > 100 µM (inactive)

Nc1ccccc1/C=C\c1ccccc1 has a reported GI50 of > 100 µM (inactive)

The measured GI50 associated with Cc1ccc(S(=O)(=O)n2ccn3c(=O)cc(C)nc23)cc1 reads > 10 µM (inactive)

Summary for this compound, CC(C)n1c2c(c3ccccc3c1=O)C(=O)c1ccccc1-2 : GI50 is > 100 µM (inactive)

---

Give measured GI50 for each item. Keep answers brief.
# Test system: A498
# assay: NCI tumour cell line growth inhibition, 48 h
Activity calls are given as the source filed them. Cut-off read from the data, not from the text of the source: active = GI50 up to about 1.1 µM and inactive = higher.

Reported GI50 (A498) for entry CCCCCCN1C(=O)CC(=O)N(CCCCCC)S1(=O)=O is 14.7 µM (inactive)

The compound Clc1ccc(OCc2nnc3sc(-c4ccc(-c5ccc(Cl)cc5Cl)o4)nn23)cc1 , when measured on A498, yielded GI50 of > 100 µM (inactive)

# CC(C)(C)OC(=O)NCCC1CN(C(=O)c2ccccc2)c2ccccc21 (stereo unspecified) with A498: GI50 is > 100 µM (inactive)

The measured GI50 that N#Cc1cc2c(cc1Cl)Sc1nccn1S2(=O)=O showed for A498 is 18.3 µM (inactive)

Record CN1c2ccccc2S(=O)(=O)n2c(COc3ccc(Cl)cc3)nnc21 has A498 GI50 equal to 30.5 µM (inactive)

Tested on A498: Cc1ccc2c(c1)c1ccc3c(c1n2C)C(=O)C=CC3=O . Observed GI50: 2.88 µM (inactive)

I looked up CN(C)C1C(=O)C(C(N)=O)=C(O)C2(O)C(O)=C3C(=O)c4c(O)cccc4C(C)(O)C3CC12 (stereo unspecified) and its GI50 for A498 was 52.2 µM (inactive)

Item Nc1nc(N)c2ncn(Cc3c(Cl)cccc3Cl)c2n1 ; assay system A498; GI50 reported as > 100 µM (inactive)

# GI50 measured on A498 for item Nc1ccc(S(=O)(=O)NCCS(=O)(=O)O)cc1 = > 100 µM (inactive)

Summary: CC(=O)CCCCn1c(=O)c2c(nc(Br)n2C)n(C)c1=O , A498, GI50 = 95.9 µM (inactive)

Field GI50 (A498), entry Cc1[nH]c(-c2ccccc2)c(O)c1C(=O)OC12CC3CC(CC(C3)C1)C2 : 20.5 µM (inactive)
